# Protocol Description: NCI Yeast Anticancer Drug Screen. Data for the mlh1 rad18 strain (AID 175)
# Condition Context: S. cerevisiae mlh1 rad18 strain growth inhibition; at 50.0 µM
The panel holds about 79,000 compounds, 15% with a hit somewhere; the sample as a whole holds those more often. Activity calls are given as the source filed them. No stated cut-off is given here; in the data, active means growth inhibition above about 70%; inactive means the rest.
Possible outcomes: active, inactive

{"Compound": "CC1=C(O[Si](C(C)C)(C(C)C)C(C)C)C2CC1[C@@H]1C(=O)N(c3ccccc3)C(=O)[C@H]21 (stereo not given in full)", "Class Assignment": "inactive"}
{"Compound": "OCc1cn(C(c2ccccc2)(c2ccccc2)c2ccccc2)cn1", "Class Assignment": "inactive"}
{"Compound": "CC(C)(C)OC(=O)NCCCCC(NC(=O)OC(C)(C)C)C(=O)O (stereo not given)", "Class Assignment": "inactive"}
{"Compound": "O=C(O)c1ccc(O)cc1O", "Class Assignment": "inactive"}
{"Compound": "O=CN(Cc1ccccc1)Cc1ccccc1", "Class Assignment": "inactive"}
{"Compound": "COc1ccc(C)cc1NC(=S)NC(=O)c1cccc2ccccc12", "Class Assignment": "inactive"}
{"Compound": "Cc1cc(=O)[nH]c2c(C)cc(Cl)cc12", "Class Assignment": "inactive"}
{"Compound": "N#CCCOCCN1CCN(c2cccc(Cl)c2)CC1", "Class Assignment": "inactive"}
{"Compound": "CCOC(CN1CCCCC1)OCC", "Class Assignment": "inactive"}
{"Compound": "COC1CC(NC(=O)C(F)(F)F)C(O)C(CNC(=O)C(F)(F)F)O1 (stereo not given)", "Class Assignment": "inactive"}
{"Compound": "COc1ccc2nc3cc(Cl)ccc3c(NCCNCC(C)(C)O)c2c1", "Class Assignment": "inactive"}
{"Compound": "COc1cc2nc3n(c(=O)c2cc1OC)CCCCC3", "Class Assignment": "inactive"}
{"Compound": "O=C(NC(=O)c1ccc([N+](=O)[O-])cc1)Nc1ccccc1", "Class Assignment": "inactive"}
{"Compound": "C/C=C/CS(=O)(=O)Cc1ccccc1", "Class Assignment": "inactive"}
{"Compound": "CCCCNCC#N", "Class Assignment": "inactive"}
{"Compound": "CC1OC(C)(CCc2ccccc2)OC1C (stereo not given)", "Class Assignment": "inactive"}
{"Compound": "CCCCc1c(OCC)cc2n(CC)c3ccccc3n2c1=O", "Class Assignment": "inactive"}
{"Compound": "CCC1=CCN(c2cc(C)ccn2)OC1c1ccc(OC)cc1 (stereo not given)", "Class Assignment": "inactive"}
{"Compound": "CCNC1=C(OC)C(=O)C(NCC)=C(OC)C1=O", "Class Assignment": "inactive"}
{"Compound": "CCNC(CC(N)=O)C(=O)O (stereo not given)", "Class Assignment": "inactive"}
{"Compound": "Brc1ccc[n+](CCc2ccccc2)c1", "Class Assignment": "inactive"}
{"Compound": "c1ccc2c(c1)CC1C3c4ccccc4C(c4ccccc43)C1C2 (stereo not given)", "Class Assignment": "inactive"}
{"Compound": "FC(F)(F)c1cccc(CSCc2c(CSCc3cccc(C(F)(F)F)c3)c(CSCc3cccc(C(F)(F)F)c3)c(CSCc3cccc(C(F)(F)F)c3)c(CSCc3cccc(C(F)(F)F)c3)c2CSCc2cccc(C(F)(F)F)c2)c1", "Class Assignment": "inactive"}
{"Compound": "COCCCN1COCC(COc2ccc(Cl)cc2)OC1 (stereo not given)", "Class Assignment": "inactive"}
{"Compound": "C1CSCCSCCSCCSC1", "Class Assignment": "inactive"}
{"Compound": "O=[N+]([O-])c1cc(Br)cc2c1nc(NCCO)c1ccccc12", "Class Assignment": "active"}
{"Compound": "COc1ccc2nc3cc(Cl)ccc3c(C=O)c2c1", "Class Assignment": "inactive"}
{"Compound": "COc1ccc(C(O)c2ncccc2C)cc1OC (stereo not given)", "Class Assignment": "inactive"}
{"Compound": "Cc1cc(C(N)=O)c(C(N)=O)c(=O)[nH]1", "Class Assignment": "inactive"}
{"Compound": "O=C(Nc1ccc(S(=O)(=O)NC2CCCCC2)cc1)Oc1ccc([N+](=O)[O-])cc1", "Class Assignment": "inactive"}
{"Compound": "C=CCN1C(=O)C(c2ccccc2)(c2ccccc2)NC1=S", "Class Assignment": "inactive"}
{"Compound": "O=Cc1ccc2ccocc1-2", "Class Assignment": "inactive"}
{"Compound": "CCOC(=O)NCCNC(=O)OCC", "Class Assignment": "inactive"}
{"Compound": "COC1OC2COC(c3ccccc3)OC2C(OS(=O)(=O)c2ccc(Br)cc2)C1OS(=O)(=O)c1ccc(Br)cc1 (stereo not given)", "Class Assignment": "inactive"}
{"Compound": "C=CCCCCCCCCCO", "Class Assignment": "inactive"}
{"Compound": "NC(Cc1ccc(OC(c2ccccc2)c2ccccc2)cc1)C(=O)O (stereo not given)", "Class Assignment": "inactive"}
{"Compound": "C=CCNC(=S)/N=C/c1c(C(=O)OCC)[nH]n(-c2ccccc2)c1=O", "Class Assignment": "inactive"}
{"Compound": "CC/C=N/Nc1ccc([N+](=O)[O-])cc1[N+](=O)[O-]", "Class Assignment": "inactive"}
{"Compound": "O=C1OC(C(O)CO)C(C(O)CO)OC1=O (stereo not given)", "Class Assignment": "inactive"}
{"Compound": "CCC12C=CCN(CCc3c([nH]c4ccccc34)/C=C\\1)C2 (stereo not given)", "Class Assignment": "inactive"}
{"Compound": "COc1ccc2oc(=O)c(CC=C(C)C)c(O)c2c1C", "Class Assignment": "inactive"}
{"Compound": "CNC(=O)c1cc2nc3ccccc3c(=O)n2c2ccccc12", "Class Assignment": "inactive"}
{"Compound": "O=C(O)c1ccc(N=NC2Sc3nc4ccccc4n3C2=O)cc1 (stereo not given)", "Class Assignment": "inactive"}
{"Compound": "CC(C)(O)C#Cc1ccccc1", "Class Assignment": "inactive"}
{"Compound": "NC(=O)C(c1ccccc1)c1ccnc2ccccc12 (stereo not given)", "Class Assignment": "inactive"}
{"Compound": "O=C1CC(c2ccccc2)NCN1 (stereo not given)", "Class Assignment": "inactive"}
{"Compound": "COc1ccc(C(C#N)NNC(=O)c2ccccc2O)cc1OC (stereo not given)", "Class Assignment": "inactive"}
{"Compound": "CN(C)Cc1ccccc1COC(=O)/C=C/c1ccccc1", "Class Assignment": "inactive"}
{"Compound": "NC(=O)c1ncc[nH]c1=O", "Class Assignment": "inactive"}
{"Compound": "COC(=O)c1ccc(Cl)cc1OCC(=O)Nc1ccccc1", "Class Assignment": "inactive"}
